- System: HEK-293T
- assay method text: Multiplex assay against HEK293T
- Type: toxicity, cell-based
- experimental conditions: human, 48 h, 1 µM, compound concentration 1 uM, replicate 1
measured attribute: Population Fragmented Nuclei (%)

>>> assay_result("COc1cccc2c1c(NS(=O)(=O)c1ccc(Cl)s1)nn2Cc1cccc(CNC(=O)C(C)(C)O)c1")
10
>>> assay_result("N#Cc1cc(F)cc(-c2nc(-c3ccc(F)cn3)no2)c1")
15
>>> assay_result("O=C1[C@H](Cc2ccc(O)cc2)N2C(=O)CCN(C(=O)NCc3ccccc3)[C@H]2CN1Cc1cccc2ccccc12")
14
>>> assay_result("O=C(CCCc1ccccc1)Nc1nc2ccccc2c(=O)s1")
11
>>> assay_result("C[C@H](N)COC(=O)[C@@H](CCCCN)NC(=O)Cc1c(-c2ccc3ccccc3c2)[nH]c2c1ccc1ccccc12")
13
>>> assay_result("CC(/C=C1\\SC(=S)N(CCCC(=O)Nc2ccc(C(=O)O)c(O)c2)C1=O)=C\\c1ccccc1")
13
>>> assay_result("Cc1cnc(-c2cc(N3CCN(C(=O)CCS(C)(=O)=O)CC3)ncc2Cl)c(C)c1")
17
>>> assay_result("CC(=O)Nc1cccc2c1c(Sc1ccc(Cl)cc1)c(C)n2CC(=O)O")
15
>>> assay_result("Cc1onc(-c2ccccc2Cl)c1C(=O)N(C)c1ccc(Cl)cc1")
14
>>> assay_result("CC(C)(C)c1cc(NC(=O)Nc2ccc(-c3cn4c(n3)sc3cc(OCCN5CCOCC5)ccc34)cc2)no1")
12
>>> assay_result("Cc1c(CC(=O)O)c2cccnc2n1Cc1ccc(S(C)(=O)=O)cc1C(F)(F)F")
13
>>> assay_result("CCCCC1=NC2(CCCC2)C(=O)N1Cc1ccc(-c2ccccc2-c2nnn[nH]2)cc1")
11
>>> assay_result("CN[C@@H](C)C(=O)N[C@H](C(=O)N1CCC[C@H]1C(=O)Nc1snnc1-c1ccccc1)C1CCCCC1")
12
>>> assay_result("Cl.N=C(N)NC(=O)Cc1c(Cl)cccc1Cl [GUANFACINE HYDROCHLORIDE]")
15
>>> assay_result("CN(C)C(=O)Cn1cc(-c2ccc(-c3cncc4ccccc34)cc2)cn1")
19
>>> assay_result("CN1CCN(c2cc(-c3ccccc3)nc(N)n2)CC1")
13
>>> assay_result("O=C(NCCN1CCC(n2c(=O)[nH]c3cc(Cl)ccc32)CC1)c1ccc(F)cc1 [HALOPEMIDE]")
13
>>> assay_result("Cc1sc2c(c1C)C(c1ccc(Cl)cc1)=N[C@@H](CC(=O)NCCCCCCCCNC(=O)COc1cccc3c1C(=O)N(C1CCC(=O)NC1=O)C3=O)c1nnc(C)n1-2 (stereo partly drawn)")
7
>>> assay_result("NCCc1cn(S(=O)(=O)c2c(Cl)nc3sccn23)c2ccccc12.O=C(O)C(=O)O")
16
>>> assay_result("Cl.NCCc1ccc(O)c(O)c1 [DOPAMINE HYDROCHLORIDE]")
14
>>> assay_result("COc1ccccc1N1CCN(C[C@@H](C(=O)NC(C)(C)C)c2ccccc2)CC1.Cl.Cl")
13
>>> assay_result("CCc1cc2cc(NS(=O)(=O)c3ccc(C#N)cc3)ccc2n(CC)c1=O")
11
>>> assay_result("COC[C@@H](c1ccc(C(F)(F)F)cc1)N1CCN(C2(C)CCN(C(=O)c3c(C)ncnc3C)CC2)C[C@@H]1C.O=C(O)/C=C\\C(=O)O [VICRIVIROC MALEATE]")
11
>>> assay_result("CC[C@@H](C)Nc1nc(C)nc2c(-c3ccc(OC)nc3C)c(C)nn12")
12
>>> assay_result("CCCOc1ccc2[nH]cc(C3=CCNCC3)c2n1.Cl")
13
>>> assay_result("CCCCCC(O)/C=C/[C@H]1C(=O)CC(O)C1C/C=C\\CCCC(=O)O (stereo partly drawn)")
12
>>> assay_result("Br.CS(=O)(=O)Nc1c(O)ccc2c1CCCC2C1=NCCN1 (stereo not drawn)")
14
>>> assay_result("CCCCC(=O)N(Cc1ccc(-c2ccccc2-c2nnn[nH]2)cc1)[C@H](C(=O)O)C(C)C")
13
>>> assay_result("Cc1cccc(NC(=O)CN2CCC(c3ccccn3)CC2)c1.Cl.Cl")
13
>>> assay_result("N#Cc1c(Oc2cccc(OS(=O)(=O)CCCC(F)(F)F)c2)cccc1C(F)(F)F")
13
>>> assay_result("CC(C)c1noc(N2CCC(COc3ccc(-c4ccc(S(C)(=O)=O)cc4)nc3)CC2)n1")
10
>>> assay_result("Cc1noc(-c2ccc(-c3ccc(CC(=O)O)cc3)cc2)c1NC(=O)O[C@H](C)c1ccccc1Cl")
11
>>> assay_result("CC(C)COc1ccc(CNC(=O)N(Cc2ccc(F)cc2)C2CCN(C)CC2)cc1")
13
